- target desc: Ku70/80 (Homo sapiens, UniProt P12956+P13010)
- Sequence (P12956 whole entry): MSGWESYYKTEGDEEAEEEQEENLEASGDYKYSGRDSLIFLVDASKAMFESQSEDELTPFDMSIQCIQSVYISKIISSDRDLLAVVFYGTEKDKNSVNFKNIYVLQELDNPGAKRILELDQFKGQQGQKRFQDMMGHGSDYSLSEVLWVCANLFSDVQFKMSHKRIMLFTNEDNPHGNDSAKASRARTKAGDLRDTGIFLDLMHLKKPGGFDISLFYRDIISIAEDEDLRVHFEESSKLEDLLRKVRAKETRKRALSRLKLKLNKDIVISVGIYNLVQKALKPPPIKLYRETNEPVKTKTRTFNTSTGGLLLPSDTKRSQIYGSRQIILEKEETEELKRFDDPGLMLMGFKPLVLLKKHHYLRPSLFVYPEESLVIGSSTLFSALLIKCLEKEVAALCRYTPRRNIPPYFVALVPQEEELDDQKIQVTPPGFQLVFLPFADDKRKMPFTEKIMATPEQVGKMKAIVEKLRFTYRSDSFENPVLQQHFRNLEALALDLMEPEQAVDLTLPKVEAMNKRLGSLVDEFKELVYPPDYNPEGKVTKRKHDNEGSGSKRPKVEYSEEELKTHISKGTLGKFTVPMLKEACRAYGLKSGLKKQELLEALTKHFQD
- Sequence (P13010 whole entry): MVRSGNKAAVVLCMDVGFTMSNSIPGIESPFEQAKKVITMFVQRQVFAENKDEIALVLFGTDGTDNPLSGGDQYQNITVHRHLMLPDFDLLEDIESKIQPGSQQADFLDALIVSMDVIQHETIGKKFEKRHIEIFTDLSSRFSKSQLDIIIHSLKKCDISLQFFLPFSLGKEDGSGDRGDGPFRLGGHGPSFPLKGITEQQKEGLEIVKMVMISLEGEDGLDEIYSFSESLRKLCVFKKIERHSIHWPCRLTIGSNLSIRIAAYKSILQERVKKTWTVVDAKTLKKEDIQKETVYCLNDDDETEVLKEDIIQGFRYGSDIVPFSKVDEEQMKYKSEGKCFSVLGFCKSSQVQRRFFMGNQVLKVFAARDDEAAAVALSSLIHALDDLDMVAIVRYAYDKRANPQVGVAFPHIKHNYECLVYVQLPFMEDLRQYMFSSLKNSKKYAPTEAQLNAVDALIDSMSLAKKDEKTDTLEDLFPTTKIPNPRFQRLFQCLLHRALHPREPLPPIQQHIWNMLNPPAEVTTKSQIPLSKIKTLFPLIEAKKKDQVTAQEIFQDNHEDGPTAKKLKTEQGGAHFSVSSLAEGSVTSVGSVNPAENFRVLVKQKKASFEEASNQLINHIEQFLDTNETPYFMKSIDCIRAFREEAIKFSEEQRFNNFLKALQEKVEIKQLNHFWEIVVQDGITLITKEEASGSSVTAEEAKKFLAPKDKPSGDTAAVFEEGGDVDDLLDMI
- protocol notes: Electrophoretic mobility shift assay
test readout: IC50

• COc1cccc(NC(=O)c2cc(-c3ccc(CC4C(=O)N(c5cccc(C(=O)O)c5)N=C4C(F)(F)F)o3)ccc2Cl)c1 (stereo not drawn) [compound 322] = 2660 nM
• COc1cccc(NC(=O)c2cc(-c3ccc(CC4C(=O)N(c5cccc(C(=O)O)c5)N=C4C)o3)ccc2Cl)c1 (stereo not drawn) [compound 149] = 3720 nM
• COc1cccc(NC(=O)c2cc(-c3ccc(CC4C(=O)N(c5cccc(-c6nnn[nH]6)c5)N=C4C)o3)ccc2Cl)c1 (stereo not drawn) [compound 245] = 1990 nM

Numbers sourced from paper PMC7672428.
